biological target: D(2) dopamine receptor (Rattus norvegicus, UniProt P61169); assay: In vitro binding affinity for Dopamine receptor D2 of rat nucleus accumbens labeled with [3H]spiperone was determined at 10 uM concentration.

chemical-smiles: Fc1ccc2[nH]c3c(c2c1)CCN(CCCCc1ccncc1)C3
subject-of-test: D(2) dopamine receptor (Rattus norvegicus, UniProt P61169)
Ki, nM: 720

----------
target: D(2) dopamine receptor (Rattus norvegicus) (UniProt P61169); assay: In vitro binding affinity for Dopamine receptor D2 of rat nucleus accumbens labeled with [3H]spiperone was determined at 1 uM concentration
Sequence (P61169 whole entry): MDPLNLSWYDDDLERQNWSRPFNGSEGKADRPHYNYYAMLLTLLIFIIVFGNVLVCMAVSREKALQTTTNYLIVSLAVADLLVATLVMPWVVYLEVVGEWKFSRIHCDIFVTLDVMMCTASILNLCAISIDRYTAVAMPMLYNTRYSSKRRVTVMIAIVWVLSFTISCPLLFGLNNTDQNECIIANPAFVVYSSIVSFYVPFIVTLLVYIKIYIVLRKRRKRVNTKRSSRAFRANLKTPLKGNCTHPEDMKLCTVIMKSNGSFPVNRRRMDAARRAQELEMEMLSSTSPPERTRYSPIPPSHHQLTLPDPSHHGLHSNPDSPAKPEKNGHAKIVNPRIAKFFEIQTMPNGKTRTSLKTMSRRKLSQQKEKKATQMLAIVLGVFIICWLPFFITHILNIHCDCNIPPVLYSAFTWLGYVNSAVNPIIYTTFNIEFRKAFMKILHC
Category key, based on recorded inhibition: bucket 1: < 7%; bucket 2: ≥ 7% and < 20%; bucket 3: ≥ 20%

compound: c1ccc2c3c([nH]c2c1)CN(Cc1ccncc1)CC3
group: bucket 2

compound: c1ccc2c3c([nH]c2c1)CN(CCc1cnccn1)CC3
group: bucket 2

compound: CC1CN(CCCN2CCc3c([nH]c4ccccc34)C2)CC(C)N1 (stereo unspecified)
group: bucket 3

compound: CN(C)CCCn1c2c(c3ccccc31)CCN(CCCc1ccncc1)C2
group: bucket 1

compound: Clc1ccc2[nH]c3c(c2c1)CCN(CCCCc1ccncc1)C3
group: bucket 3

compound: Cn1c(CN2CCc3c([nH]c4ccccc34)C2)nc2ccccc21
group: bucket 1

compound: COc1ccc2[nH]c3c(c2c1)CCN(Cc1c(OC)cccc1OC)C3
group: bucket 2

compound: COc1ccc2[nH]c3c(c2c1)CCN(CCc1ccccn1)C3
group: bucket 2

compound: COc1cccc(OC)c1CN1CCc2c([nH]c3ccccc23)C1
group: bucket 2

compound: Fc1ccc2[nH]c3c(c2c1)CCN(CCc1ccccn1)C3
group: bucket 3

compound: c1ccc(CCN2CCc3c([nH]c4ccccc34)C2)nc1
group: bucket 3

compound: c1ccc2c(CN3CCc4c([nH]c5ccccc45)C3)ccnc2c1
group: bucket 3

compound: O=C(c1nccc2ccccc12)N1CCc2c([nH]c3ccccc23)C1
group: bucket 1

----------
target: D(2) dopamine receptor (Rattus norvegicus) (UniProt P61169); test: In vitro binding affinity for Dopamine receptor D2 of rat nucleus accumbens labeled with [3H]spiperone was determined at 1 uM concentration
Let's look at some molecules and their measured inhibition.

chemical-smiles: c1ccc2nc(CN3CCc4c([nH]c5ccccc45)C3)ccc2c1
inhibition / %: 7
//
chemical-smiles: c1ccc2c(N3CCc4c([nH]c5ccccc45)C3)ccnc2c1
inhibition / %: 7
//
chemical-smiles: c1coc(CN2CCc3c([nH]c4ccccc34)C2)c1
inhibition / %: 7
